// reported K per item
# Assay notes: Displacement of Ethidium bromide from NFAT1 (5-GAAAAA-3') hairpin DNA (unknown origin)/EtBr complex assessed as binding constant by crystal violet staining based analysis

Item smiles	K
CN(C)c1ccc(C(=C2C=CC(=[N+](C)C)C=C2)c2ccccc2-c2ccccc2-c2ccccc2C(=C2C=CC(=[N+](C)C)C=C2)c2ccc(N(C)C)cc2)cc1	1.14 10^5/M
CN(C)c1ccc(C(=C2C=CC(=[N+](C)C)C=C2)c2ccc(OCc3ccccc3COc3ccc(C(=C4C=CC(=[N+](C)C)C=C4)c4ccc(N(C)C)cc4)cc3)cc2)cc1	29.1 10^5/M
Cc1cc(N(C)C)cc(C)c1C(=C1C=CC(=[N+](C)C)C=C1)c1ccc(N(C)C)cc1	0.19 10^5/M
CN(C)c1ccc(C(=C2C=CC(=[N+](C)C)C=C2)c2ccc(/C=C/c3cc4c(cc3/C=C/c3ccc(C(=C5C=CC(=[N+](C)C)C=C5)c5ccc(N(C)C)cc5)cc3)OCO4)cc2)cc1	49.8 10^5/M

###

// reported K per item
# Assay notes: Displacement of Ethidium bromide from STAT6 (5'-TCCTAG-3') hairpin DNA (unknown origin)/EtBr complex assessed as binding constant by crystal violet staining based analysis

Item smiles	K
CN(C)c1ccc(C(=C2C=CC(=[N+](C)C)C=C2)c2ccc(OCc3ccccc3COc3ccc(C(=C4C=CC(=[N+](C)C)C=C4)c4ccc(N(C)C)cc4)cc3)cc2)cc1	1.32 10^5/M
CN(C)c1ccc(C(=C2C=CC(=[N+](C)C)C=C2)c2ccc(/C=C/c3cc4c(cc3/C=C/c3ccc(C(=C5C=CC(=[N+](C)C)C=C5)c5ccc(N(C)C)cc5)cc3)OCO4)cc2)cc1	2.22 10^5/M
CN(C)c1ccc(C(=C2C=CC(=[N+](C)C)C=C2)c2ccccc2-c2ccccc2-c2ccccc2C(=C2C=CC(=[N+](C)C)C=C2)c2ccc(N(C)C)cc2)cc1	1.8 10^5/M
Cc1cc(N(C)C)cc(C)c1C(=C1C=CC(=[N+](C)C)C=C1)c1ccc(N(C)C)cc1	1.06 10^5/M

###

# Assay notes: Binding affinity to DDD hairpin DNA (unknown origin) assessed as binding constant at 100 uM by ITC analysis
// reported K per item
Measurement name: K

Item smiles	Measurement name	Recorded value
CN(C)c1ccc(C(=C2C=CC(=[N+](C)C)C=C2)c2ccc(C#Cc3cc4c(cc3C#Cc3ccc(C(=C5C=CC(=[N+](C)C)C=C5)c5ccc(N(C)C)cc5)cc3)OCO4)cc2)cc1	K	0.5 10^5/M
Cc1cc(N(C)C)cc(C)c1C(=C1C=CC(=[N+](C)C)C=C1)c1ccc(N(C)C)cc1	K	14.6 10^5/M
CN(C)c1ccc(C(=C2C=CC(=[N+](C)C)C=C2)c2ccc(-c3cc4c(cc3-c3ccc(C(=C5C=CC(=[N+](C)C)C=C5)c5ccc(N(C)C)cc5)cc3)OCO4)cc2)cc1	K	2.4 10^5/M
CN(C)c1ccc(C(=C2C=CC(=[N+](C)C)C=C2)c2ccc3cc(N(C)C)ccc3c2)cc1	K	3.1 10^5/M
CN(C)c1ccc(C(=C2C=CC(=[N+](C)C)C=C2)c2ccc(OCc3ccccc3COc3ccc(C(=C4C=CC(=[N+](C)C)C=C4)c4ccc(N(C)C)cc4)cc3)cc2)cc1	K	20.5 10^5/M
CN(C)c1ccc(C(=C2C=CC(=[N+](C)C)C=C2)c2ccc(/C=C/c3cc4c(cc3/C=C/c3ccc(C(=C5C=CC(=[N+](C)C)C=C5)c5ccc(N(C)C)cc5)cc3)OCO4)cc2)cc1	K	7.5 10^5/M
CN(C)c1ccc(C(=C2C=CC(=[N+](C)C)C=C2)c2ccc(N(C)C)c(-c3ccccc3)c2)cc1-c1ccccc1	K	0.3 10^5/M
CN(C)c1ccc(C(=C2C=CC(=[N+](C)C)C(c3ccccc3)=C2)c2ccc(N(C)C)c(-c3ccccc3)c2)cc1-c1ccccc1	K	48.7 10^5/M
CC1=CC(=[N+](C)C)C=CC1=C(c1ccc(N(C)C)cc1C)c1ccc(N(C)C)cc1C	K	1.2 10^5/M
CN(C)c1ccc(C(=C2C=CC(=[N+](C)C)C=C2)c2ccc(N(C)C)c(-c3ccccc3)c2)cc1	K	96.4 10^5/M
CN(C)c1ccc(C(=C2C=CC(=[N+](C)C)C=C2)c2ccccc2-c2ccccc2-c2ccccc2C(=C2C=CC(=[N+](C)C)C=C2)c2ccc(N(C)C)cc2)cc1	K	21.1 10^5/M

###

# Assay notes: Displacement of Ethidium bromide from STAT6 (5'-TCCTAG-3') hairpin DNA (unknown origin)/EtBr complex assessed as decrease in initial absorbance of DNA by crystal violet staining based analysis
Under this convention, true (1) denotes C50 strictly below 1 µM and false (0) denotes C50 at or above 1 µM.

Item smiles	Class label
CN(C)c1ccc(C(=C2C=CC(=[N+](C)C)C=C2)c2ccc(-c3cc4c(cc3-c3ccc(C(=C5C=CC(=[N+](C)C)C=C5)c5ccc(N(C)C)cc5)cc3)OCO4)cc2)cc1	false (0)
CN(C)c1ccc(C(=C2C=CC(=[N+](C)C)C=C2)c2ccc(C#Cc3cc4c(cc3C#Cc3ccc(C(=C5C=CC(=[N+](C)C)C=C5)c5ccc(N(C)C)cc5)cc3)OCO4)cc2)cc1	false (0)
CN(C)c1ccc(C(=C2C=CC(=[N+](C)C)C=C2)c2ccc(/C=C/c3cc4c(cc3/C=C/c3ccc(C(=C5C=CC(=[N+](C)C)C=C5)c5ccc(N(C)C)cc5)cc3)OCO4)cc2)cc1	false (0)
CN(C)c1ccc(C(=C2C=CC(=[N+](C)C)C=C2)c2ccc(OCc3ccccc3COc3ccc(C(=C4C=CC(=[N+](C)C)C=C4)c4ccc(N(C)C)cc4)cc3)cc2)cc1	false (0)
CN(C)c1ccc(C(=C2C=CC(=[N+](C)C)C=C2)c2ccccc2-c2ccccc2-c2ccccc2C(=C2C=CC(=[N+](C)C)C=C2)c2ccc(N(C)C)cc2)cc1	true (1)

###

// reported C50 per item
# Tested on: AT rich DNA
# Assay notes: Displacement of Ethidium bromide from AT3 (5'-ATATAT-3') hairpin DNA (unknown origin)/EtBr complex assessed as decrease in initial absorbance of DNA by crystal violet staining based analysis
# Assay type: nucleic-acid assay

Item smiles	Unit label	C50
CN(C)c1ccc(C(=C2C=CC(=[N+](C)C)C=C2)c2ccc(-c3cc4c(cc3-c3ccc(C(=C5C=CC(=[N+](C)C)C=C5)c5ccc(N(C)C)cc5)cc3)OCO4)cc2)cc1	µM	1.36
CN(C)c1ccc(C(=C2C=CC(=[N+](C)C)C=C2)c2ccc(OCc3ccccc3COc3ccc(C(=C4C=CC(=[N+](C)C)C=C4)c4ccc(N(C)C)cc4)cc3)cc2)cc1	µM	2.08
CN(C)c1ccc(C(=C2C=CC(=[N+](C)C)C=C2)c2ccccc2-c2ccccc2-c2ccccc2C(=C2C=CC(=[N+](C)C)C=C2)c2ccc(N(C)C)cc2)cc1	µM	1.11
CN(C)c1ccc(C(=C2C=CC(=[N+](C)C)C=C2)c2ccc(/C=C/c3cc4c(cc3/C=C/c3ccc(C(=C5C=CC(=[N+](C)C)C=C5)c5ccc(N(C)C)cc5)cc3)OCO4)cc2)cc1	µM	1.21
CN(C)c1ccc(C(=C2C=CC(=[N+](C)C)C=C2)c2ccc(C#Cc3cc4c(cc3C#Cc3ccc(C(=C5C=CC(=[N+](C)C)C=C5)c5ccc(N(C)C)cc5)cc3)OCO4)cc2)cc1	µM	1.52

###

# Assay notes: Displacement of Ethidium bromide from DDD (5-CGAATT-3') hairpin DNA (unknown origin)/EtBr complex assessed as decrease in initial absorbance of DNA by crystal violet staining based analysis
Under this convention, Yes denotes C50 strictly below 0.8 µM and No denotes C50 at or above 0.8 µM.

Item smiles	Class label
CN(C)c1ccc(C(=C2C=CC(=[N+](C)C)C=C2)c2ccccc2-c2ccccc2-c2ccccc2C(=C2C=CC(=[N+](C)C)C=C2)c2ccc(N(C)C)cc2)cc1	Yes
CN(C)c1ccc(C(=C2C=CC(=[N+](C)C)C=C2)c2ccc(OCc3ccccc3COc3ccc(C(=C4C=CC(=[N+](C)C)C=C4)c4ccc(N(C)C)cc4)cc3)cc2)cc1	No
CN(C)c1ccc(C(=C2C=CC(=[N+](C)C)C=C2)c2ccc(C#Cc3cc4c(cc3C#Cc3ccc(C(=C5C=CC(=[N+](C)C)C=C5)c5ccc(N(C)C)cc5)cc3)OCO4)cc2)cc1	No
CN(C)c1ccc(C(=C2C=CC(=[N+](C)C)C=C2)c2ccc(-c3cc4c(cc3-c3ccc(C(=C5C=CC(=[N+](C)C)C=C5)c5ccc(N(C)C)cc5)cc3)OCO4)cc2)cc1	No

###

# Assay notes: Displacement of Ethidium bromide from NFAT1 (5-GAAAAA-3') hairpin DNA (unknown origin)/EtBr complex assessed as decrease in initial absorbance of DNA by crystal violet staining based analysis

Item smiles	C50 (µM)
CN(C)c1ccc(C(=C2C=CC(=[N+](C)C)C=C2)c2ccc(OCc3ccccc3COc3ccc(C(=C4C=CC(=[N+](C)C)C=C4)c4ccc(N(C)C)cc4)cc3)cc2)cc1	2.64
CN(C)c1ccc(C(=C2C=CC(=[N+](C)C)C=C2)c2ccc(/C=C/c3cc4c(cc3/C=C/c3ccc(C(=C5C=CC(=[N+](C)C)C=C5)c5ccc(N(C)C)cc5)cc3)OCO4)cc2)cc1	1.27
CN(C)c1ccc(C(=C2C=CC(=[N+](C)C)C=C2)c2ccc(-c3cc4c(cc3-c3ccc(C(=C5C=CC(=[N+](C)C)C=C5)c5ccc(N(C)C)cc5)cc3)OCO4)cc2)cc1	1.23
CN(C)c1ccc(C(=C2C=CC(=[N+](C)C)C=C2)c2ccc(C#Cc3cc4c(cc3C#Cc3ccc(C(=C5C=CC(=[N+](C)C)C=C5)c5ccc(N(C)C)cc5)cc3)OCO4)cc2)cc1	2.22
CN(C)c1ccc(C(=C2C=CC(=[N+](C)C)C=C2)c2ccccc2-c2ccccc2-c2ccccc2C(=C2C=CC(=[N+](C)C)C=C2)c2ccc(N(C)C)cc2)cc1	0.69
